Test system: erythroid progenitor cells (EPCs)
assay protocol: Fetal hemoglobin (HbF) ELISA in day 7 erythroid progenitor cells;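 also: for fetal hemoglobin induction normalized to vehicle-treated cells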
Assay type: cell-based, human
recorded conditions: Homo sapiens, Erythroid progenitor cell, HbF ELISA, day 7 EPCs, 5 days; read-out: EPC ELISA (pEC50 category) (converted)
result type: EC50

Here is how some molecules turned out for EC50.
N#Cc1c(SC(C(N)=O)c2ccccc2)nc(N2CCNC(CO)C2)c(C#N)c1C1CC1 (centres unmarked) : 316 to 1000 nM
CCc1c(C#N)c(SC(C(N)=O)c2ccc(C(F)(F)F)cc2)nc(N2CCC(N)CC2)c1C#N (centres unmarked) : 316 to 1000 nM
CCc1c(C#N)c(SCc2ccc(N(C)S(C)(=O)=O)cc2)nc(N2CCOC(CN(C)C)C2)c1C#N (centres unmarked) : < 316 nM
CCc1c(C#N)c(SCc2ccc(N(C)S(C)(=O)=O)cc2)nc(N(C)CCNCCOC)c1C#N : 316 to 1000 nM
CCc1c(C#N)c(SC(C(N)=O)c2ccccc2)nc(N2CCC3(CC2)CNC3)c1C#N (centres unmarked) : 316 to 1000 nM
CCc1c(C#N)c(SC(C(N)=O)c2ccccc2)nc(N2CCC(N(C)CC)CC2)c1C#N (centres unmarked) : < 316 nM
CCc1c(C#N)c(SC(C(N)=O)c2ccccc2)nc(N2CCN(S(=O)(=O)c3ccccc3)CC2)c1C#N (centres unmarked) : 316 to 1000 nM

Below: the item to evaluate.
Query block: # return EC50 for CCc1c(C#N)c(SC(C(N)=O)c2ccccc2)nc(N(C)CC(=O)NCCO)c1C#N (centres unmarked) , test system: erythroid progenitor cells (EPCs)
Result block: < 316 nM
